Data provenance is ChEMBL document CHEMBL3393028.

Experiment: Fraction unbound in rat plasma by equilibrium dialysis method
Type: ADME, cell-free
PROPERTY: fraction unbound
Could you respond with only the numeric value?

Exercise: Which measured fraction unbound value corresponds to N#Cc1ccccc1Oc1ccc(C(=O)NCc2ccncc2)cc1 ?
Key: 0.14

Exercise: Which measured fraction unbound value corresponds to N#Cc1ccccc1Oc1ccc(C(=O)NCc2ccncn2)cc1 ?
Key: 0.2

Exercise: Which measured fraction unbound value corresponds to CCCc1c(C(=O)Nc2cc(S(=O)(=O)N(C)C)ccc2C)cnn1-c1ccccc1 ?
Key: 0.031

Exercise: Which measured fraction unbound value corresponds to CCCc1c(C(=O)Nc2cc(S(=O)(=O)N(C)C)ccc2C)cnn1-c1cccnc1 ?
Key: 0.24
